studyTarget: Recombinant full length human OGA enzyme (Homo sapiens (Human))
Sequence (O60502 whole entry): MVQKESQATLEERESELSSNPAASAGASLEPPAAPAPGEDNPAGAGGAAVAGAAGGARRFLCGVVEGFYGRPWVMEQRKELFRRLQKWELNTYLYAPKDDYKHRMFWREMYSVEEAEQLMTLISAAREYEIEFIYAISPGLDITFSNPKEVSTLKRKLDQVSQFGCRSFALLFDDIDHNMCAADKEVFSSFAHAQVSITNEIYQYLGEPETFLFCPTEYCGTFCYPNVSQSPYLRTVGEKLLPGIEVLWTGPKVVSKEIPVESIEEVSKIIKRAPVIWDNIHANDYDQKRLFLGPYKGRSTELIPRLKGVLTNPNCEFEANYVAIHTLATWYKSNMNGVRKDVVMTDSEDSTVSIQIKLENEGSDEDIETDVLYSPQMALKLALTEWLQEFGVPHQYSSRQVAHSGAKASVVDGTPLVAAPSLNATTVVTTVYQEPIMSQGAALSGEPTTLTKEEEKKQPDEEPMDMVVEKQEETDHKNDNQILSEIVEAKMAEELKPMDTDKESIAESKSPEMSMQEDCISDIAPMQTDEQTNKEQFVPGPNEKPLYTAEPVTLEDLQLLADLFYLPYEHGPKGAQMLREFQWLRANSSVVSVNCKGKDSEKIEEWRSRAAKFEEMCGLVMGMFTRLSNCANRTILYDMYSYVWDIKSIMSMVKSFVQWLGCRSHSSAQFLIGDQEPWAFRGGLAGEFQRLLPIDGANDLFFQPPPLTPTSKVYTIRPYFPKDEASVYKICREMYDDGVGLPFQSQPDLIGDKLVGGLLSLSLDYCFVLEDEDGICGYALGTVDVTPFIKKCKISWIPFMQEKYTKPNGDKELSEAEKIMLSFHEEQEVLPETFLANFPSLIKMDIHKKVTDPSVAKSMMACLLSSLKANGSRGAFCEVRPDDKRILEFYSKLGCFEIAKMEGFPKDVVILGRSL
assayComment: OGA Enzyme Inhibition Biochemical Assay
runParameters: 1 nM OGA, 100 μM 4-MUGlcNAc, pH 6.4
pIC50: −log10 of the molar value.
valueType: pIC50

Find the measured pIC50 of CC(=O)Nc1nc(F)c(CN2C[C@H](Oc3cc(O)ncn3)C[C@@H]2C)s1 and report it. > 9.00

Recall and state the measured pIC50 for [2H][C@]1(Oc2cc(OC)ncn2)C[C@H](C)N(Cc2sc(NC(C)=O)nc2F)C1 . 7.89

Please list pIC50 recorded for the molecule CC(=O)Nc1nc(F)c(CN2CC[C@@H](Oc3cc(C)nc(C)c3)C2)s1 > 9.00

For the molecule COc1cnc(O[C@@H]2C[C@H](C)N(Cc3sc(NC(C)=O)nc3F)C2)cn1 , give its reported pIC50. > 9.00

Determine its reported pIC50: CC(=O)Nc1ncc(CN2C[C@H](Oc3ccnc(C)n3)C[C@@H]2C)s1 > 9.00

Lab note: next molecule to report on.
Look up and state reported pIC50 for CC(=O)Nc1nc(F)c(CN2C[C@H](Oc3cc(C)nc(C)c3)C[C@H]2C)s1 (stereo in doubt) 8.70

* * *

System: P-gp (MDR1)
assayComment: MDR1-MDCK Efflux Ratio Assay
Assay type: in vitro ADME
runParameters: dog, MDCK-MDR1, pH 7.4, MDR1-MDCK cells, 2 hr, pH 7.4; read-out: MDR1-MDCK Efflux Ratio (B-A/A-B)
valueType: efflux ratio at 2 h

Consider the following illustrative entries.
Give measured efflux ratio at 2 h for CC(=O)Nc1ncc(CN2C[C@H](Oc3cc(OC(C)C)ncn3)C[C@@H]2C)s1 (P-gp (MDR1)). 3.1

Enter efflux ratio at 2 h (test system P-gp (MDR1)) for CC(=O)Nc1nc(F)c(CN2C[C@H](Oc3ncccc3F)C[C@@H]2C)s1 1.8

State efflux ratio at 2 h on P-gp (MDR1). Entry: CC(=O)Nc1ncc(CN2C[C@H](Oc3cc(N(C)C)ncn3)C[C@@H]2C)s1 17.8

State efflux ratio at 2 h on P-gp (MDR1). Entry: COc1cc(O[C@@H]2C[C@@H](C)N(Cc3cnc(NC(C)=O)s3)C2)ncn1 3.9

***
Report efflux ratio at 2 h under test system P-gp (MDR1) for CC(=O)Nc1nc(F)c(CN2C[C@@H](Oc3cc(C)nc(C)c3)CC[C@@H]2C)s1 . 21.8

Find the measured efflux ratio at 2 h of COc1ccc(O[C@@H]2C[C@H](C)N(Cc3sc(NC(C)=O)nc3F)C2)cn1 with P-gp (MDR1) as test system. 1.9

# return efflux ratio at 2 h for CC(=O)Nc1ncc(CN2C[C@H](Oc3cc(C)nc(C)c3)C[C@H]2C)s1 , test system: P-gp (MDR1) 45.2

Under P-gp (MDR1): report efflux ratio at 2 h of CC(=O)Nc1nc(F)c(CN2C[C@H](Oc3cc(C)nc(C)c3)C[C@H]2C)s1 (stereo in doubt) . 23.3

Provide measured efflux ratio at 2 h on P-gp (MDR1) for CCC(=O)Nc1nc(F)c(CN2CC[C@@H](Oc3cc(OC)ncn3)C2)s1 please. 1.7

Give measured efflux ratio at 2 h for CC(=O)Nc1nc(F)c(CN2C[C@H](Oc3cnc(N4CCOCC4)cn3)C[C@@H]2C)s1 (P-gp (MDR1)). 8.3

Would you please give the reported efflux ratio at 2 h of [2H]C([2H])(c1cnc(NC(C)=O)s1)N1C[C@H](Oc2cc(OC)ncn2)C[C@@H]1C (single isomer, unassigned) with P-gp (MDR1)? 4.6

Enter measured efflux ratio at 2 h, system P-gp (MDR1), for the compound shown: CC(=O)Nc1ncc(CN2C[C@H](Oc3cc(N4CCC4)ncn3)C[C@@H]2C)s1 23.6

# assay system P-gp (MDR1): give efflux ratio at 2 h of CC(=O)Nc1ncc(CN2C[C@@H](Oc3ccc(C)nc3)C[C@H]2C)s1 (stereo in doubt) 19.6

Recall the reported efflux ratio at 2 h of COc1cnc(O[C@@H]2C[C@H](C)N(Cc3sc(NC(C)=O)nc3F)C2)cn1 on P-gp (MDR1) and write it down. 2.4

Recall the reported efflux ratio at 2 h of COc1cc(O[C@@H]2CC[C@H](C)N(Cc3sc(NC(C)=O)nc3F)C2)ncn1 on P-gp (MDR1) and write it down. 4.3

Given [2H]C(c1cnc(NC(C)=O)s1)N1C[C@H](Oc2cc(OC)ncn2)C[C@@H]1C (single isomer, unassigned) , report its efflux ratio at 2 h on P-gp (MDR1). 5.2

* * *

studyTarget: OGA (S400 O-GLCNAC), HEK-293T cells transfected with Tau-V5 (Homo sapiens (Human))
Sequence (O60502 whole entry): as above
assayComment: Cellular OGA-Tau MSD Assay
Format: cell-based
runParameters: HEK-293T cells, Tau-S400-GlcNAc MSD readout
valueType: IC50 (nM)
Number in nM, nothing else.

Write down IC50 measured for item CC(=O)Nc1nc(F)c(CN2C[C@H](Oc3cc(N4CCC4)ncn3)C[C@@H]2C)s1 1

Fill in reported IC50 for this entry: COc1cc(O[C@@H]2C[C@H](C)N(Cc3sc(NC(C)=O)nc3F)C2)ncn1 2

Could you please provide reported IC50 for CC(=O)Nc1ncc(CN2C[C@H](Oc3ccccn3)C[C@@H]2C)s1 ? Thanks! 5

Input COc1cc(O[C@@H]2CCN(Cc3cnc(NC(C)=O)s3)C2)ncn1 , output reported IC50. 27

Item CC(=O)Nc1ncc(CN2C[C@H](Oc3ccc(F)cn3)CC[C@@H]2C)s1 : provide IC50 6

Kindly review the next molecule as well.
Tell me IC50 reported for CC(=O)Nc1nc(F)c(CN2C[C@H](Oc3cc(N4CCOCC4)ncn3)C[C@@H]2C)s1 3

* * *

Test system: P-gp (MDR1)
assayComment: MDR1-MDCK Efflux Ratio Assay
Assay type: in vitro ADME
runParameters: dog, MDCK-MDR1, pH 7.4, MDR1-MDCK cells, 2 hr, pH 7.4; read-out: MDR1-MDCK Efflux Ratio (B-A/A-B)
valueType: efflux ratio at 2 h
Number only, please.

Below, each entry is followed by its recorded efflux ratio at 2 h result.
Identify the reported efflux ratio at 2 h for the following entry. COc1cc(O[C@@H]2CC[C@H](C)N(Cc3cnc(NC(C)=O)s3)C2)ncn1 9.3

Note efflux ratio at 2 h for the compound shown: CC(=O)Nc1ncc(CN2C[C@H](Oc3ccc(C(F)F)cn3)C[C@@H]2C)s1 2.4

Return reported efflux ratio at 2 h. Input compound: CC(=O)Nc1nc(F)c(CN2C[C@H](Oc3ccc(Cl)cn3)C[C@@H]2C)s1 1.1

Supply measured efflux ratio at 2 h of COc1cc(O[C@H]2CC[C@H](C)N(Cc3sc(NC(C)=O)nc3F)C2)ncn1 in your reply. 4.1

Return reported efflux ratio at 2 h. Input compound: CC(=O)Nc1nc(F)c(CN2C[C@H](Oc3ccnc(C)c3)C[C@@H]2C)s1 34.4

Respond only with efflux ratio at 2 h recorded for CC(=O)Nc1ncc(CN2C[C@@H](Oc3ccc(F)cn3)C[C@@H]2C)s1 1.9

Query efflux ratio at 2 h for CC(=O)Nc1nc(F)c(CN2C[C@H](Oc3cc(C)nc(C)c3)CC[C@@H]2C)s1 26.4

More entries:
Give efflux ratio at 2 h for CC(=O)Nc1ncc(CN2C[C@H](Oc3cc(C)c(F)cn3)C[C@@H]2C)s1 1.8

* * *

assayComment: Rat Liver Microsome Stability Assay
Type: in vitro ADME
runParameters: rat liver microsomes, 1 uM compound
Catalogue of RLM % Qh (%) readings, one per entry.
Dear colleague, please return just the value in %, with no unit written.

// known answers, use as guide
Annotate the molecule CC(=O)Nc1ncc(CN2C[C@H](Oc3cc(N(C)C)ncn3)C[C@@H]2C)s1 with its measured RLM % Qh (%). 58

Specify measured RLM % Qh (%) for CC(=O)Nc1ncc(CN2C[C@H](Oc3ccc(F)nc3)C[C@@H]2C)s1 . 54

Identify measured RLM % Qh (%) corresponding to CC(=O)Nc1ncc(CN2C[C@H](Oc3cc(OC4COC4)ncn3)C[C@@H]2C)s1 16

Find the measured RLM % Qh (%) of CC(=O)Nc1ncc(CN2C[C@@H](Oc3cc(C)nc(C)c3)C[C@@H]2C)s1 and report it. 32

Fill in RLM % Qh (%) for record COc1cncc(O[C@@H]2C[C@H](C)N(Cc3cnc(NC(C)=O)s3)C2)n1 97

Continuing:
State its RLM % Qh (%): COc1cnc(O[C@@H]2C[C@H](C)N(Cc3cnc(NC(C)=O)s3)C2)cn1 57

// Input: CC(=O)Nc1ncc(CN2C[C@H](Oc3cc(C(F)F)ncn3)C[C@@H]2C)s1 . Output its RLM % Qh (%) only. 48

Read off the recorded RLM % Qh (%) for CC(=O)Nc1ncc(CN2C[C@H](Oc3ncc(F)cn3)C[C@@H]2C)s1 26
